Test system: Staphylococcus aureus
Assay: Antibacterial activity against intermediate rifamycin-resistant Staphylococcus aureus CB372 with rpoB Asp471Tyr mutation
Type: functional
Below, each of the compounds is paired with its reported MIC value.
Answer format: numeric, µg/mL implied, no suffix.

CO[C@H]1/C=C/O[C@@]2(C)Oc3c(C)c(O)c4c(c3C2=O)C2=NC3(CCN(CC(C)C)CC3)CNC2=C(NC(=O)/C(C)=C\C=C\[C@H](C)[C@H](O)[C@@H](C)[C@@H](O)[C@@H](C)[C@H](OC(C)=O)[C@@H]1C)C4=O : 7.81

Return MIC measured with Staphylococcus aureus given this compound: CO[C@H]1/C=C/O[C@@]2(C)Oc3c(C)c(O)c4c(c3C2=O)C2=NC3(CCN(C(=O)OC(C)(C)C)CC3)CNC2=C(NC(=O)/C(C)=C\C=C\[C@H](C)[C@H](O)[C@@H](C)[C@@H](O)[C@@H](C)[C@H](OC(C)=O)[C@@H]1C)C4=O
7.81

Give the reported MIC for CO[C@H]1/C=C/O[C@@]2(C)Oc3c(C)c(O)c4c(c3C2=O)C2=NC3(CCN(C(=O)OC(C)(C)C)C3)CNC2=C(NC(=O)/C(C)=C\C=C\[C@H](C)[C@H](O)[C@@H](C)[C@@H](O)[C@@H](C)[C@H](OC(C)=O)[C@@H]1C)C4=O (some centres undefined) (system: Staphylococcus aureus).
7.81

# get_value(readout= MIC, system= Staphylococcus aureus) for CO[C@H]1/C=C/O[C@@]2(C)Oc3c(C)c(O)c4c(c3C2=O)C2=NC3(CCN(Cc5cnc6ccccc6c5)C3)CNC2=C(NC(=O)/C(C)=C\C=C\[C@H](C)[C@H](O)[C@@H](C)[C@@H](O)[C@@H](C)[C@H](OC(C)=O)[C@@H]1C)C4=O (some centres undefined)
7.81
